Attribution: patent US20230135894A1

Below, each of the molecules is paired with its reported DC50 value.
SYSTEM TESTED: UniProtKB P49137
Sequence (P49137 whole entry): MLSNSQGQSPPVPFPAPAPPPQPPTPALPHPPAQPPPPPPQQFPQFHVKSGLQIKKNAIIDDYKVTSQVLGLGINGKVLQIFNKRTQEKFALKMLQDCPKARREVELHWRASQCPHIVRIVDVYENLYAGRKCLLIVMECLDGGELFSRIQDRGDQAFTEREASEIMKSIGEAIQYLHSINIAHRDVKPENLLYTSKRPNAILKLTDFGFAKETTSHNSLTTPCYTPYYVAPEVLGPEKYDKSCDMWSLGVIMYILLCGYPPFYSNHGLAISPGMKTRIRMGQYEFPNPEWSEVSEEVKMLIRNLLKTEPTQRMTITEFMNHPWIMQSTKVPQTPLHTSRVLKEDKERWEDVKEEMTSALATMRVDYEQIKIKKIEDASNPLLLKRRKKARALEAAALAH
METHOD: MK2 degradation in human SW1353 cells (MSD, 24 h)
Format: cell-based
Design: endogenous in cells; host or cells: SW-1353 (ATCC HTB-94)
MEASUREMENT CONDITIONS: read-out: MK2 MSD SW1353 degradation 24 h GMean External Abs DC50
Protocol: MK2 Degradation in Human SW1353 Cells […] After 3 more washes, the secondary detection antibody (SULFO-Tag anti rabbit antibody R32AB-5) was added at a final concentration of 1 microgram per ml at 25 microlitres per well and shaken at room temperature for 1 hour at 600 rpm. After 3 more washes, the 1×MSD (diluted from 5× concentrate with water) reading buffer was added at 150 microlitres per well and read on the MSD instrument Meso Sector S 600. […]
METRIC: DC50

INSERT INTO assay_data (molecule, test_value) VALUES
  ('C[C@@H]1CNc2c(sc3ccc4nc(-c5cncc(N6CCN(C(=O)COCCOCCc7cccc8c7n(C)c(=O)n8C7CCC(=O)NC7=O)CC6)c5)ccc4c23)C(=O)N1 (some centres unmarked)', '1 to 10 nM'),
  ('C[C@@H]1CNc2c(sc3ccc4nc(-c5cncc(N6CCN(CC7CCN(c8ccc9c(c8)n(C)c(=O)n9C8CCC(=O)NC8=O)CC7)CC6)c5)ccc4c23)C(=O)N1 (some centres unmarked)', '< 1 nM'),
  ('C[C@@H]1CNc2c(sc3ccc4nc(N5C[C@@H]6C[C@H]5CN6CC5CCN(c6cccc7c6n(C)c(=O)n7C6CCC(=O)NC6=O)CC5)ccc4c23)C(=O)N1 (some centres unmarked)', '> 100 nM'),
  ('Cc1nc(N2CCN(CC3CN(c4ccc5c(c4)n(C)c(=O)n5C4CCC(=O)NC4=O)C3)CC2)ccc1-c1ccc2c(ccc3sc4c(c32)NC[C@@H](C)NC4=O)n1 (some centres unmarked)', '< 1 nM'),
  ('C[C@@H]1CNc2c(sc3ccc4nc(-c5ccc(N6CCN(C[C@@H]7CCN(c8ccc9c(c8)n(C)c(=O)n9C8CCC(=O)NC8=O)C7)CC6)cc5)ccc4c23)C(=O)N1 (some centres unmarked)', '< 1 nM'),
  ('C[C@@H]1CNc2c(sc3ccc4nc(-c5ccnc(N6CCN(CC7CCN(c8ccc9c(c8)n(C)c(=O)n9C8CCC(=O)NC8=O)CC7)CC6)c5)ccc4c23)C(=O)N1 (some centres unmarked)', '< 1 nM'),
  ('Cn1c(=O)n(C2CCC(=O)NC2=O)c2ccc(N3CCC(CN4CCN(c5ccc(-c6cc(-c7cc8c([nH]7)C7(CCCC7)CNC8=O)ccn6)cc5)CC4)CC3)cc21 (centres unmarked)', '< 1 nM'),
  ('C[C@@H]1CNc2c(sc3ccc4nc(-c5ccc(N6CCN(CCCc7ccc8c(c7)n(C)c(=O)n8C7CCC(=O)NC7=O)CC6)cc5)ccc4c23)C(=O)N1 (some centres unmarked)', '< 1 nM'),
  ('Cc1cc(N2CCN(CCCc3ccc4c(c3)n(C)c(=O)n4C3CCC(=O)NC3=O)CC2)ccc1-c1ccc2c(ccc3sc4c(c32)NC[C@@H](C)NC4=O)n1 (some centres unmarked)', '< 1 nM'),
  ('Cn1c(=O)n(C2CCC(=O)NC2=O)c2ccc(N3CCC(CN4CCN(c5ccc(-c6nccc(-c7cc8c([nH]7)C7(CC7)CNC8=O)n6)cc5)CC4)CC3)cc21 (centres unmarked)', '< 1 nM'),
  ('C[C@@H]1CNc2c(sc3ccc4nc(-c5ccc(N6CCN(CCCc7ccc8c(c7)n(C)c(=O)n8C7CCC(=O)NC7=O)CC6)cc5F)ccc4c23)C(=O)N1 (some centres unmarked)', '< 1 nM');
